# test: Cytotoxicity against mouse NIH/3T3 cells after 72 hrs by WST1 assay
# Format: cell-based, NIH3T3
# measurementSetup: read-out: TC50
Consider the cut-off 200 µM. If the recorded CC50 at 72 h is strictly smaller, the label is Condition met; if not, the label is Condition not met.

| compoundString | answerLabel |
| --- | --- |
| Cc1c(CNC(=O)c2ccc(C3CCCCC3)cc2)c(C)[n+]2c(c1CNC(=O)c1ccc(C3CCCCC3)cc1)CCC2 | Condition met |
| Cc1c(CNC(=O)c2ccc(C(C)C)cc2)c(C)[n+]2c(c1CNC(=O)c1ccc(C(C)C)cc1)CCC2 | Condition not met |
| Cc1c(CNC(=O)c2ccc(-c3ccccc3)cc2)c(C)[n+]2c(c1CNC(=O)c1ccc(-c3ccccc3)cc1)CCC2 | Condition not met |
| Cc1c(CNC(=O)c2ccc(C(C)(C)C)cc2)c(C)[n+]2c(c1CNC(=O)c1ccc(C(C)(C)C)cc1)CCC2 | Condition met |
| Cc1c(CNC(=O)c2ccc(Cl)cc2)c(C)[n+]2c(c1CNC(=O)c1ccc(Cl)cc1)CCC2 | Condition not met |
| Cc1c(CNC(=O)c2ccccc2)c(C)[n+]2c(c1CNC(=O)c1ccccc1)CCC2 | Condition not met |
| Cc1c(CNC(=O)c2ccc(Br)cc2)c(C)[n+]2c(c1CNC(=O)c1ccc(Br)cc1)CCC2 | Condition met |

###

# systemUnderTest: C-C chemokine receptor type 5 (Homo sapiens, UniProt P51681)
# Sequence (P51681 whole entry): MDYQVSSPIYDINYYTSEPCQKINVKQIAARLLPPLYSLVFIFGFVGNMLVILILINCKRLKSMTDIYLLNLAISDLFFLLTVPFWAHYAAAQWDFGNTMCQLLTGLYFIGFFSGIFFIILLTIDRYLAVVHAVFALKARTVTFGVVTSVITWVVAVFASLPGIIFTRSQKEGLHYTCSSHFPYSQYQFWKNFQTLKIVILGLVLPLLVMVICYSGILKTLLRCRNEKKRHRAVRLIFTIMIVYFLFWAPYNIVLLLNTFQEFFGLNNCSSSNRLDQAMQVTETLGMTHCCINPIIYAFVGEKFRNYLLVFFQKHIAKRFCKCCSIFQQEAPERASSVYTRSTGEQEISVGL
# test: Antagonist activity at CCR5 (unknown origin) expressed in human MOLT4 cells assessed as inhibition of CCL5-induced calcium mobilization after 1 hr
Lab note - cut at 20 µM for IC50: MET if strictly below, NOT MET if not.

| compoundString | systemUnderTest | answerLabel |
| --- | --- | --- |
| Cc1ccc(C(=O)NCc2c(C)c(CNC(=O)c3ccc(C)cc3)c3[n+](c2C)CCC3)cc1 | C-C chemokine receptor type 5 (Homo sapiens, UniProt P51681) | MET |
| Cc1c(CNC(=O)c2ccc(-c3ccccc3)cc2)c(C)[n+]2c(c1CNC(=O)c1ccc(-c3ccccc3)cc1)CCC2 | C-C chemokine receptor type 5 (Homo sapiens, UniProt P51681) | MET |
| Cc1c(CNC(=O)c2ccc(C(F)(F)F)cc2)c(C)[n+]2c(c1CNC(=O)c1ccc(C(F)(F)F)cc1)CCC2 | C-C chemokine receptor type 5 (Homo sapiens, UniProt P51681) | NOT MET |
| Cc1c(CNC(=O)c2ccc3ccccc3c2)c(C)[n+]2c(c1CNC(=O)c1ccc3ccccc3c1)CCC2 | C-C chemokine receptor type 5 (Homo sapiens, UniProt P51681) | MET |
| Cc1c(CNC(=O)c2ccccc2)c(C)[n+]2c(c1CNC(=O)c1ccccc1)CCC2 | C-C chemokine receptor type 5 (Homo sapiens, UniProt P51681) | MET |
| CCc1ccc(C(=O)NCc2c(C)c(CNC(=O)c3ccc(CC)cc3)c3[n+](c2C)CCC3)cc1 | C-C chemokine receptor type 5 (Homo sapiens, UniProt P51681) | NOT MET |
| Cc1c(CNC(=O)c2ccc(C3CCCCC3)cc2)c(C)[n+]2c(c1CNC(=O)c1ccc(C3CCCCC3)cc1)CCC2 | C-C chemokine receptor type 5 (Homo sapiens, UniProt P51681) | MET |
| Cc1c(CNC(=O)c2ccc(C#N)cc2)c(C)[n+]2c(c1CNC(=O)c1ccc(C#N)cc1)CCC2 | C-C chemokine receptor type 5 (Homo sapiens, UniProt P51681) | NOT MET |
| Cc1c(CNC(=O)c2ccc(C(C)C)cc2)c(C)[n+]2c(c1CNC(=O)c1ccc(C(C)C)cc1)CCC2 | C-C chemokine receptor type 5 (Homo sapiens, UniProt P51681) | NOT MET |
| COc1ccc(C(=O)NCc2c(C)c(CNC(=O)c3ccc(OC)cc3)c3[n+](c2C)CCC3)cc1 | C-C chemokine receptor type 5 (Homo sapiens, UniProt P51681) | NOT MET |
| Cc1c(CNC(=O)c2ccc(C(C)(C)C)cc2)c(C)[n+]2c(c1CNC(=O)c1ccc(C(C)(C)C)cc1)CCC2 | C-C chemokine receptor type 5 (Homo sapiens, UniProt P51681) | NOT MET |
| Cc1c(CNC(=O)c2ccc(Br)cc2)c(C)[n+]2c(c1CNC(=O)c1ccc(Br)cc1)CCC2 | C-C chemokine receptor type 5 (Homo sapiens, UniProt P51681) | NOT MET |
| Cc1c(CNC(=O)c2ccc(N)cc2)c(C)[n+]2c(c1CNC(=O)c1ccc(N)cc1)CCC2 | C-C chemokine receptor type 5 (Homo sapiens, UniProt P51681) | NOT MET |
| Cc1c(CNC(=O)c2ccc(F)cc2)c(C)[n+]2c(c1CNC(=O)c1ccc(F)cc1)CCC2 | C-C chemokine receptor type 5 (Homo sapiens, UniProt P51681) | NOT MET |
| Cc1c(CNC(=O)c2ccc([N+](=O)[O-])cc2)c(C)[n+]2c(c1CNC(=O)c1ccc([N+](=O)[O-])cc1)CCC2 | C-C chemokine receptor type 5 (Homo sapiens, UniProt P51681) | NOT MET |
| Cc1c(CNC(=O)c2ccc(Cl)cc2)c(C)[n+]2c(c1CNC(=O)c1ccc(Cl)cc1)CCC2 | C-C chemokine receptor type 5 (Homo sapiens, UniProt P51681) | NOT MET |
